# ASSAYED SYSTEM: Retinoic acid receptor RXR-gamma (Homo sapiens)
# Sequence (P48443 whole entry): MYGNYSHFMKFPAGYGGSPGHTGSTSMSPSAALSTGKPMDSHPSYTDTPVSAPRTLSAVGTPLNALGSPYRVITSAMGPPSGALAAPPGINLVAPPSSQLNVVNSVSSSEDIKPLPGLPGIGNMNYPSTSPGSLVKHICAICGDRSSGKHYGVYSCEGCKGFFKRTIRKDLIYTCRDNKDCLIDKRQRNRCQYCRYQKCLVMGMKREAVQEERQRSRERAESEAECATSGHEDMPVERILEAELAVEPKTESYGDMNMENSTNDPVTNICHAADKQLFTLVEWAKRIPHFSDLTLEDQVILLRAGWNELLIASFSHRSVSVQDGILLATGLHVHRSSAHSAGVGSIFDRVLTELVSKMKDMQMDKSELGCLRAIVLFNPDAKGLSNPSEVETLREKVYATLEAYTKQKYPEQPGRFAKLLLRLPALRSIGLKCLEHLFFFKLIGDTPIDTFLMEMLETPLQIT
# PROCEDURE SUMMARY: Binding affinity towards recombinantly expressed Retinoic acid receptor RXR-gamma in baculoviral system, by using 5 nM [3H]targretin in a competitive binding assay
pKi: −log10 of the molar value.
Here, each record is paired with measured pKi data.

RECORD SMILES: CCCO/N=C(\c1ccc(C(=O)O)cc1)c1cc2c(cc1C)C(C)(C)CCC2(C)C
BOUND OPERATOR: =
pKi: 7.24

RECORD SMILES: CCO/N=C(\c1ccc(C(=O)O)cc1)c1cc2c(cc1C)C(C)(C)CCC2(C)C
BOUND OPERATOR: =
pKi: 7.38

RECORD SMILES: Cc1cc2c(cc1/C(=N\O)c1ccc(C(=O)O)cc1)C(C)(C)CCC2(C)C
BOUND OPERATOR: =
pKi: 6.68

RECORD SMILES: CO/N=C(\c1ccc(C(=O)O)cc1)c1cc2c(cc1C)C(C)(C)CCC2(C)C
BOUND OPERATOR: =
pKi: 8.10

RECORD SMILES: Cc1cc2c(cc1/C(=N\OC(C)(C)C)c1ccc(C(=O)O)cc1)C(C)(C)CCC2(C)C
BOUND OPERATOR: <
pKi: 6.00

RECORD SMILES: CO/N=C(/c1ccc(C(=O)O)cc1)c1ccc2c(c1)C(C)(C)CCC2(C)C
BOUND OPERATOR: =
pKi: 6.25

RECORD SMILES: C=CCO/N=C(\c1ccc(C(=O)O)cc1)c1cc2c(cc1C)C(C)(C)CCC2(C)C
BOUND OPERATOR: =
pKi: 7.10

RECORD SMILES: CCCCO/N=C(\c1ccc(C(=O)O)cc1)c1cc2c(cc1C)C(C)(C)CCC2(C)C
BOUND OPERATOR: =
pKi: 6.65

RECORD SMILES: Cc1cc2c(cc1/C(=N/OCCN)c1ccc(C(=O)O)cc1)C(C)(C)CCC2(C)C
BOUND OPERATOR: <
pKi: 6.00
